Below, each entry is listed with its recorded half-life.
experiment: Plasma stability assay (human plasma); assay type: in vitro ADME; conditions: 37° C., read-out: T½ in human plasma (converted)
VALUE_KIND: half-life

C=C(C)[C@@H]1CCC(C)=C[C@H]1c1c(O)cc(CCCCC)cc1OC(=O)NCCCOP(=O)(O)O.N.N [38c]; > 4 h
C=C(C)[C@@H]1CCC(C)=C[C@H]1c1c(O)cc(CCCCC)cc1OC(=O)C1(OP(=O)(O)OCCCCCCC)CC1.N [14e]; > 4 h
C=C(C)[C@@H]1CCC(C)=C[C@H]1c1c(O)cc(CCCCC)cc1OC(=O)OCCCCOP(=O)(O)O.N.N [29c]; > 4 h
C=C(C)[C@@H]1CCC(C)=C[C@H]1c1c(O)cc(CCCCC)cc1OC(=O)C1(OP(=O)(O)OCCOC)CC1.N [14i]; > 4 h
